Field: Eff. %. Provide a value for each of the molecules that follow.
# Tested on: Phytophthora infestans
# Format: in vivo
# condition info: tomato plants, protective spray, active ingredient concentration 100 ppm, evaluation 7 days after inoculation; 0% = control, 100% = no infection
Number in %, nothing else.

Ask: Eff. % for CC1(c2ccccc2OS(C)(=O)=O)CC(c2csc(C3CCN(C(=O)Cn4nc(C(F)F)cc4C(F)F)CC3)n2)=NO1 (racemic) ?
Reply: 94

Ask: Follow-up item: C=CCOCc1ccccc1C1CC(c2csc(C3CCN(C(=O)Cn4nc(C(F)(F)F)cc4C)CC3)n2)=NO1 (centres unmarked)
Reply: 95

Ask: Please give the result for O=C(O)c1ccccc1C1CC(c2csc(C3CCN(C(=O)Cn4nc(C(F)F)cc4C(F)F)CC3)n2)=NO1 (centres unmarked) too.
Reply: 93

Ask: Please give the result for CCON=C(C)c1cccc(C2CC(c3csc(C4CCN(C(=O)Cn5nc(C(F)F)cc5C(F)F)CC4)n3)=NO2)c1 (mixture of isomers) too.
Reply: 100

Ask: Please give the result for CCS(=O)(=O)Oc1cccc(C2CC(c3csc(C4CCN(C(=O)Cn5nc(C(F)(F)F)cc5C)CC4)n3)=NO2)c1 (centres unmarked) too.
Reply: 100

Ask: For Cc1cc(C(F)(F)F)nn1CC(=O)N1CCC(c2nc(C3=NOC(c4ccccc4OS(=O)(=O)C4CC4)C3)cs2)CC1 (racemic) then?
Reply: 89

Ask: Same for Cc1ccc(Cl)cc1NC(=O)N1CCC(c2nc(C3=NOC(c4ccccc4C=NOC(C)C)C3)cs2)CC1 (mixture of isomers)
Reply: 100

Ask: Another molecule: Cc1cc(C(F)(F)F)nn1CC(=O)N1CCC(c2nc(C3=NOC(c4ccc(OS(=O)(=O)C5CC5)cc4)C3)cs2)CC1 (centres unmarked)
Reply: 95

Ask: Next up: C[Si](C)(C)C#Cc1ccccc1C1CC(c2csc(C3CCN(C(=O)Cn4nc(C(F)F)cc4C(F)F)CC3)n2)=NO1 (centres unmarked)
Reply: 100

Ask: Now try CS(=O)(=O)Oc1cccc(Cl)c1C1CC(c2csc(C3CCN(C(=O)Cn4nc(C(F)F)cc4C(F)F)CC3)n2)=NO1 (centres unmarked) .
Reply: 75

Ask: Consider next the molecule O=C(Cn1nc(C(F)F)cc1C(F)F)N1CCC(c2nc(C3=NOC(c4ccccc4OC(=O)C4(Cl)CC4)C3)cs2)CC1 (centres unmarked) in the same way.
Reply: 100

Ask: Field entry: C=CC(=O)Oc1ccccc1C1CC(c2csc(C3CCN(C(=O)Cn4nc(C(F)(F)F)cc4C)CC3)n2)=NO1 (centres unmarked)
Reply: 97

Ask: What do we get for CSCOc1ccccc1C1CC(c2csc(C3CCN(C(=O)Cn4nc(C(F)F)cc4C(F)F)CC3)n2)=NO1 (centres unmarked) ?
Reply: 94

Ask: Consider next the molecule Cc1cc(C(F)F)nn1CC(=O)N1CCC(c2nc(C3=NOC(c4ccccc4OS(C)(=O)=O)C3)cs2)CC1 (racemic) in the same way.
Reply: 97

Ask: Can you check Cc1cc(C(F)(F)F)nn1CC(=O)N1CCC(c2nc(C3=NOC(c4ccc(OS(C)(=O)=O)cc4)C3)cs2)CC1 (centres unmarked) next?
Reply: 95

Ask: Now the molecule O=C(Oc1ccccc1C1CC(c2csc(C3CCN(C(=O)Cn4nc(C(F)F)cc4C(F)F)CC3)n2)=NO1)c1ccccc1F (centres unmarked)
Reply: 100

Ask: Now try Cc1cc(C(F)(F)F)nn1CC(=O)N1CCC(c2nc(C3=NOC(c4cccc(C=NO)c4)C3)cs2)CC1 (mixture of isomers) .
Reply: 100
